biological target: Brd4 bromodomain 1 (Homo sapiens, UniProt O60885); construct: made in house; host or cells: E. coli BL21(DE3); experiment: Inhibition of binding of tetra-acetylated histone H4 and Brd4 bromodomain 1 by TR-FRET; conditions: His-tagged bromodomain 200 nM, biotinylated tetra-acetylated histone H4 peptide 25-50 nM, 2 hours at room temperature

{"compound": "COc1cc2nc(-c3cc(C)c(OCC(N)=O)c(C)c3)[nH]c(=O)c2cc1OC [Example 50]", "FRET activity (<50 uM)": "Inactive"}
{"compound": "Cc1cc(C)c2c(=O)[nH]c(-c3cc(C)c(OCCO)c(C)c3)nc2c1 [Example 71]", "FRET activity (<50 uM)": "Inactive"}

The values you see were collected from patent US20130281397A1.
